Entry source: PubChem BioAssay (NCI)

Test system: RPMI-8226 leukemia
Test: NCI tumour cell line growth inhibition, 48 h; in the data active = GI50 below about 0.43 µM; inactive = the rest
Outcomes you can answer with include only these: class 1 (active), class 0 (inactive)

Below, 4 molecules whose answers are already recorded.
# molecule, testSystem, class
data = [
    ("O=C(Oc1ccc(CCl)cc1)c1ccccc1", "RPMI-8226 leukemia", "class 1"),
    ("CCOC(=O)Oc1c(OC)cc(C(=O)O[C@@H]2C[C@@H]3CN4CCc5c([nH]c6cc(OC)ccc56)[C@H]4C[C@@H]3[C@H](C(=O)OC)[C@H]2OC)cc1OC", "RPMI-8226 leukemia", "class 0"),
    ("Cc1cc(S(=O)(=O)Nc2nnc(-c3ccccc3)c(-c3ccccc3)n2)c(SCc2ccccc2)cc1Cl", "RPMI-8226 leukemia", "class 0"),
    ("O=[N+]([O-])/C=C/c1c[nH]c2ccccc12", "RPMI-8226 leukemia", "class 0"),
]

Ask: How was COc1ccc(-c2nc(-c3cn(C)c4ncccc34)cs2)cc1 classified in this test?
Reply: class 0
